Target: T1, Human Id1: Histidine (human, UniProt P41134 1-155, limits assumed)
T1 construct: Fusion protein made in E. coli from vector pGW07; also called h-Id1: his; not shown: His tag
T1 sequence (looked up): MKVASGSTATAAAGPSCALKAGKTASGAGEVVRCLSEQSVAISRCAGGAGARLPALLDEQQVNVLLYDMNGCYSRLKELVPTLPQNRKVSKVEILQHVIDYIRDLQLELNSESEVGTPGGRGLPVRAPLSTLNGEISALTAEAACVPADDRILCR
Assay: ELISA, Ab 0.500 µg/ml
A450: recorded values
Quantity Name: A450 (A450)

Binder: rabbit monoclonal anti-mouse/human Id3, clone #BCH-4/#42-1 (antibody, V domains shown, Rabbit IgG from a rabbit hybridoma; also called m/h Id3 MoAb 42-1) VH: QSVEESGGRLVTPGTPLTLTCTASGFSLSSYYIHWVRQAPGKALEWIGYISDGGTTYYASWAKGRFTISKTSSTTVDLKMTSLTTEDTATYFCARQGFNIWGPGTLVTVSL VL: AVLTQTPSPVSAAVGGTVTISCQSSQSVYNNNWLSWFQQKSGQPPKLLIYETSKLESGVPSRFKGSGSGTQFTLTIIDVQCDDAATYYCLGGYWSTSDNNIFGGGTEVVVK
Observed Result: 0.047
--
Binder: rabbit monoclonal anti-mouse/human Id3, clone #BCH-4/#16-1 (antibody, V domains shown, Rabbit IgG from a rabbit hybridoma; also called m/h Id3 MoAb 16-1) VH: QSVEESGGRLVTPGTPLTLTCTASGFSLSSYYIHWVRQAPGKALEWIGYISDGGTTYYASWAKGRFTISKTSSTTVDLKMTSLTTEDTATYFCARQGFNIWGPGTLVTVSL VL: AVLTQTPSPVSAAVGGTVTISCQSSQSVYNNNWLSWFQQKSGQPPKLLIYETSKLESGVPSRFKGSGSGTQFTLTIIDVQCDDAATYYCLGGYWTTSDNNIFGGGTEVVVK
Observed Result: 0.051
--
Binder: rabbit monoclonal anti-mouse/human Id3, clone #BCH-4/#17-3 (antibody, V domains shown, Rabbit IgG from a rabbit hybridoma; also called m/h Id3 MoAb 17-3; BCH-3/#17-3) VH: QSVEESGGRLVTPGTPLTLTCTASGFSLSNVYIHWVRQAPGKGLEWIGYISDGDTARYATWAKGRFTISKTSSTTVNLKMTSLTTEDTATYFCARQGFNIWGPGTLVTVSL VL: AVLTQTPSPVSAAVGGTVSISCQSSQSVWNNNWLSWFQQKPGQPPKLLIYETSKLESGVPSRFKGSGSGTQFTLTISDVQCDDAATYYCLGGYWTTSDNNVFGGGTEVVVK
Observed Result: 0.049
